IC50 reference
Target: α5β1 integrin (Homo sapiens, UniProt P05556+P08648)
Sequence (P08648 42-894 limits assumed): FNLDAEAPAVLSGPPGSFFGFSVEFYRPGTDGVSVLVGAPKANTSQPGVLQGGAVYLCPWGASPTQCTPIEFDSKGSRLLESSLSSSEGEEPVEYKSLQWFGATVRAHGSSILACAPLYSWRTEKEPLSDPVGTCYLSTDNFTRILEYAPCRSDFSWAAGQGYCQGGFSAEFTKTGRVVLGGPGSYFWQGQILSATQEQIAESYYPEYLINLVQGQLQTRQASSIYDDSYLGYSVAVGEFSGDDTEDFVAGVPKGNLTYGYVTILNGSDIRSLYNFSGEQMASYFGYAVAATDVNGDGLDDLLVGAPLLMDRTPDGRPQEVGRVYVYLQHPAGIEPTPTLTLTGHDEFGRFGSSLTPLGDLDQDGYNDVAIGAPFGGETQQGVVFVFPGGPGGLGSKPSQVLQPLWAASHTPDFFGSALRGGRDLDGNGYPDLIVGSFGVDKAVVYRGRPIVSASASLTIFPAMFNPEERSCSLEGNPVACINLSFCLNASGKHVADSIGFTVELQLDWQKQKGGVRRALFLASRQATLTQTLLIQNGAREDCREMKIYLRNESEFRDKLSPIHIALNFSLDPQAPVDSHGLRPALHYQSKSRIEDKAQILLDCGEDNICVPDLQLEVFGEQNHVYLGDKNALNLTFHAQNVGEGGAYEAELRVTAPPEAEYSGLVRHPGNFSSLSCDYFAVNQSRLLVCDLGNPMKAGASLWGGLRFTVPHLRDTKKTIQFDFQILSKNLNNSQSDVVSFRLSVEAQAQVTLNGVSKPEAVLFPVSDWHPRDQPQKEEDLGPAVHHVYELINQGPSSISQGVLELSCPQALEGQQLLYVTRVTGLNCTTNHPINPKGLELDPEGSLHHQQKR
Sequence (P05556 21-798): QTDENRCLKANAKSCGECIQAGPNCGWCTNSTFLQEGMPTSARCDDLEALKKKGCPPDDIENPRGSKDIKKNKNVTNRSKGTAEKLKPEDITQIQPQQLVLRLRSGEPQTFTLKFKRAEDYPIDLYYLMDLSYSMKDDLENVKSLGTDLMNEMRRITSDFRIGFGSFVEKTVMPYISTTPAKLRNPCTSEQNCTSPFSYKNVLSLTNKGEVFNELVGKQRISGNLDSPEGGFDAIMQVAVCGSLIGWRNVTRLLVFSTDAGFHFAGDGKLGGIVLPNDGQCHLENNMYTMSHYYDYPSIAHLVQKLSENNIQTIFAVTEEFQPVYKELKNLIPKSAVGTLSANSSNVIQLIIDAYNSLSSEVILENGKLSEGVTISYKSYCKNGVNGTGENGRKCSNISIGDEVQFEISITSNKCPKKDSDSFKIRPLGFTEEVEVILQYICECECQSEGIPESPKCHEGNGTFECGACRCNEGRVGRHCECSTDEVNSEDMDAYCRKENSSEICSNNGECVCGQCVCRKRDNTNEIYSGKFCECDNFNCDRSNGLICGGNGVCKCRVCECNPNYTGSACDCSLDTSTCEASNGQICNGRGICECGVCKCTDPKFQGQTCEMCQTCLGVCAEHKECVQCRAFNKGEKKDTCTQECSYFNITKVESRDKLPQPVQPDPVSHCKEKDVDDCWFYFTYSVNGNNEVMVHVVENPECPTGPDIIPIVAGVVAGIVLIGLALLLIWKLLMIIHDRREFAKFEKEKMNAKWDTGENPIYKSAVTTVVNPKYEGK
Test: IC50 for the selected compounds (assay not described)
OBSERVABLE: IC50

MOL SMILES	OBSERVABLE	ASSAY VALUE
O=C(CNC(=O)c1c[nH]c(=O)c(NC2=NCCCN2)c1)NC[C@H](NC(=O)c1c(Cl)cc(-c2ccccc2)cc1Cl)C(=O)O	IC50	< 1 µM
O=C(CNC(=O)c1cncc(NC2=NCCCN2)c1)NC[C@H](NC(=O)c1c(Cl)cc(-c2ccccc2)cc1Cl)C(=O)O	IC50	< 1 µM
